- SYSTEM: EBI2 (Homo sapiens, UniProt P32249)
- Sequence (P32249 whole entry): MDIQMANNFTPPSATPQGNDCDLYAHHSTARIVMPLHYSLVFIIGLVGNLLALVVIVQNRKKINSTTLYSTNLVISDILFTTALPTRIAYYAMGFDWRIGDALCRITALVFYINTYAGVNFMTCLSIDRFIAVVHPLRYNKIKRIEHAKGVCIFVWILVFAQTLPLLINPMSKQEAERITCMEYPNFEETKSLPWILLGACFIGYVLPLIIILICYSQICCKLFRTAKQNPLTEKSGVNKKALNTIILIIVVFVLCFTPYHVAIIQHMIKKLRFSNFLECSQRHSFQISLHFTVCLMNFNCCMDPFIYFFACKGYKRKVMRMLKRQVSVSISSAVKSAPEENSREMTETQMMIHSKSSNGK
- ASSAY_NAME: Cell-based luminescent assay (EBI2 modulation)
- CONDITION_SUMMARY: cell-based luminescence; 7a,25-OHC final assay concentration 80 nM; 60 minutes incubation; read-out: IC50
pIC50: −log10 of the molar value.
PARAMETER: pIC50

O=C(c1cnc2ccccc2c1)N1CCN(C(c2ccccc2)c2ccccc2)CC1 [Compound C125] | > 7.00
COC(=O)c1ccc(C(=O)N2CCN(C(=O)c3cc4cc(Br)ccc4[nH]3)CC2)cc1 [Compound C81] | > 7.00
O=C(/C=C/c1ccc(F)cc1)N1CCN(S(=O)(=O)c2ccccc2)CC1 [Compound C205] | > 7.00
COc1ccc(-c2ccc3[nH]c(C(=O)N4CCN(C(c5ccccc5)c5ccccc5)CC4)cc3c2)cc1 [Compound C220] | > 7.00
O=C(Nc1cccc(F)c1)N1CCN(C(=O)c2cc3cc(Cl)ccc3[nH]2)CC1 [Compound C451] | 6.30 to 7.00
O=C(Nc1cccc(I)c1)N1CCN(C(=O)c2cc3cc(Cl)ccc3[nH]2)CC1 [Compound C474] | 6.30 to 7.00
O=C(C#Cc1ccc(Br)cc1)N1CCN(C(=O)c2ccc(Br)cc2)CC1 [Compound C61] | > 7.00
CCCCN1CCN(C(=O)/C=C/c2ccccc2)CC1 [Compound C312] | > 7.00
O=C(/C=C/c1cc(Br)ccc1F)N1CCN(S(=O)(=O)c2ccc(Br)cc2)CC1 [Compound C174] | 5.30 to 6.30
Cc1ccccc1/C=C/C(=O)N1CCN(S(=O)(=O)c2ccc(Br)cc2)CC1 [Compound C442] | 6.30 to 7.00
O=C(/C=C/c1ccc(F)c(F)c1)N1CCN(C(c2ccccc2)c2ccccc2)CC1 [Compound C106] | > 7.00

----------
Listed below: IC50 values for each entry.
- SYSTEM: EBI2 (Homo sapiens, UniProt P32249)
- ASSAY_NAME: Cell-based luminescent assay (EBI2 modulation)
- CONDITION_SUMMARY: cell-based luminescence; 7a,25-OHC final assay concentration 80 nM; 60 minutes incubation; read-out: IC50
PARAMETER: IC50

O=C(/C=C/c1ccc(C(F)(F)F)cc1)N1CCN(C(c2ccccc2)c2ccccc2)CC1 | < 100 nM
O=C(/C=C/c1ccc(Br)cc1)N1CCN(Cc2ccc(F)cc2C(F)(F)F)CC1 | < 100 nM
O=C(/C=C/c1ccc(F)cc1)N1CCN(S(=O)(=O)/C=C/c2ccccc2)CC1 | < 100 nM
O=C(c1ccc(Br)cc1)N1CCN(C(=O)c2cc3ccc(Br)cc3[nH]2)CC1 | < 100 nM
Cc1ccc2[nH]c(C(=O)N3CCN(S(=O)(=O)CCc4ccccc4)CC3)cc2c1 | < 100 nM
O=C(Nc1ccc(C(F)(F)F)cc1)N1CCN(C(=O)c2cc3cc(Cl)ccc3[nH]2)CC1 | 100 to 500 nM
O=C(c1nc2ccccc2s1)N1CCN(C(c2ccccc2)c2ccccc2)CC1 | 500 to 5000 nM
O=C(/C=C/c1ccc(Br)cc1)N1CCN(C(=O)c2ccc(B(O)O)cc2)CC1 | < 100 nM
O=C(C#Cc1cccc(Cl)c1Cl)N1CCN(C(=O)c2ccc(F)cc2)CC1 | < 100 nM
Cc1ccc(C#CC(=O)N2CCN(C(=O)c3ccc(C(F)(F)F)cc3)CC2)cc1 | < 100 nM
O=C(NC1CCN(C(=O)c2cc3cc(Cl)ccc3[nH]2)CC1)c1ccc(Cl)cc1 | 500 to 5000 nM
O=C(C#Cc1ccccc1C(F)(F)F)N1CCN(Cc2ccc(C(F)(F)F)cc2)CC1 | 100 to 500 nM
Cc1cc(C)cc(CN2CCN(C(=O)/C=C/c3ccc(Br)cc3)CC2)c1 | < 100 nM
O=C(c1ccc(C(F)(F)F)cc1)N1CCN(C(=O)c2cc3ccc(Br)cc3[nH]2)CC1 | 100 to 500 nM
O=C(/C=C/c1ccc(Cl)cc1F)N1CCN(C(=O)c2cc3cc(Cl)ccc3[nH]2)CC1 | < 100 nM

----------
- SYSTEM: EBI2 (Homo sapiens)
- ASSAY_NAME: Cell-based luminescent assay (EBI2 modulation)
- CONDITION_SUMMARY: cell-based luminescence; 7a,25-OHC final assay concentration 80 nM; 60 minutes incubation; read-out: IC50
pIC50: −log10 of the molar value.
PARAMETER: pIC50

O=C(C#Cc1ccc(F)cc1)N1CCN(Cc2ccc(F)cc2C(F)(F)F)CC1 [Compound C179] | 5.30 to 6.30
O=C(/C=C/c1ccc(F)cc1)N1CCN(S(=O)(=O)c2ccccc2F)CC1 [Compound C237] | > 7.00
O=C(c1cccc(C(F)(F)F)c1)N1CCN(C(=O)c2cc3cc(C(F)(F)F)ccc3[nH]2)CC1 [Compound C271] | > 7.00
O=C(NCC1CCN(C(=O)/C=C/c2ccc(Br)cc2)CC1)c1ccc(C(F)(F)F)cc1 [Compound F3] | > 7.00
O=C(/C=C/c1ccccc1)N1CCN(Cc2ccc(Br)cc2)CC1 [Compound C203] | > 7.00
O=C(/C=C/c1cccc(C(F)(F)F)c1)N1CCN(C(c2ccccc2)c2ccccc2)CC1 [Compound C265] | > 7.00
O=C(/C=C/c1cc(F)c(F)c(F)c1)N1CCN(C(c2ccccc2)c2ccccc2)CC1 [Compound C147] | > 7.00
COc1ccc(CN2CCN(C(=O)C#Cc3ccc(Cl)cc3)CC2)cc1 [Compound C372] | > 7.00
O=C(C=Cc1ccc2c(c1)OCO2)N1CCN(C(=O)c2ccc(Cl)cc2)CC1 [Compound C238] | > 7.00
O=C(C#Cc1ccccc1)N1CCN(C(c2ccccc2)c2ccccc2)CC1 [Compound C139] | > 7.00
O=C(c1ccc(Cl)cc1)N1CCN(C(=O)c2cc3ccc(F)cc3[nH]2)CC1 [Compound C366] | 6.30 to 7.00
O=C(C=Cc1ccc2c(c1)OCO2)N1CCN(Cc2ccc(C(F)(F)F)cc2)CC1 [Compound C167] | 5.30 to 6.30
O=C(c1cc2cc(C(F)(F)F)ccc2s1)N1CCN(C(c2ccccc2)c2ccccc2)CC1 [Compound C142] | > 7.00
O=C(c1cc(Br)c[nH]1)N1CCN(C(c2ccccc2)c2ccccc2)CC1 [Compound C436] | 6.30 to 7.00
O=C(/C=C/c1ccc(F)cc1)N1CCCN(S(=O)(=O)/C=C/c2ccccc2)CC1 [Compound C198] | 5.30 to 6.30
O=C(c1cnc2ccc(Cl)cc2c1)N1CCN(C(c2ccccc2)c2ccccc2)CC1 [Compound C257] | > 7.00
O=C(C#Cc1cccc(Cl)c1)N1CCN(C(=O)c2ccc(F)cc2C(F)(F)F)CC1 [Compound C157] | > 7.00
CCN1CCN(C(=O)c2cc3cc(Cl)ccc3[nH]2)CC1 [Compound C295] | 6.30 to 7.00
O=C(C#Cc1ccc(Cl)cc1)N1CCN(Cc2ccc(Cl)cc2)CC1 [Compound C384] | > 7.00
O=C(/C=C/c1ccc(Cl)c(Cl)c1)N1CCN(C(=O)c2ccc(Cl)cc2)CC1 [Compound C23] | > 7.00
O=C(/C=C/c1ccccc1)N1CCN(Cc2cccc3ccccc23)CC1 [Compound C308] | > 7.00
O=C(c1ccc(C(F)(F)F)cc1)N1CCN(C(=O)c2cc3ccc(Cl)cc3[nH]2)CC1 [Compound C391] | > 7.00
COc1ccc(C(=O)N2CCN(C(=O)C#Cc3ccc(Cl)c(Cl)c3)CC2)cc1 [Compound C12] | > 7.00
O=C(c1cc2cc(Cl)ccc2[nH]1)N1CCN(Cc2ccc(F)cc2)CC1 [Compound C319] | > 7.00
O=C(c1cc2cc(Cl)ccc2[nH]1)N1CCN(S(=O)(=O)CCc2ccccc2)CC1 [Compound C88] | > 7.00
N#Cc1ccc(C(=O)N2CCN(C(=O)c3cc4cc(C(F)(F)F)ccc4[nH]3)CC2)cc1 [Compound C102] | > 7.00
COc1ccc(C(=O)N2CCN(C(=O)C#Cc3ccc(Cl)cc3)CC2)cc1 [Compound C7] | > 7.00

----------
- SYSTEM: EBI2 (Homo sapiens, UniProt P32249)
- ASSAY_NAME: Cell-based luminescent assay (EBI2 modulation)
- CONDITION_SUMMARY: cell-based luminescence; 7a,25-OHC final assay concentration 80 nM; 60 minutes incubation; read-out: IC50
- Description: Cell-Based Luminescent Assay To assess EBI2 modulation, the compounds described herein were assayed in the following cell-based luminescent assay: 1) Plated 600 cells/well in 4 uL of assay media into columns 1-48 of a 1536-well assay plate, using a liquid dispenser. 2) Centrifuged plates at 1000 rpm for 1 minute and covered with lids. […] 10) Read plates using the Viewlux, Envision or other suitable plate reader using a luminescence detection. […]
Listed below: IC50 values for each entry.
PARAMETER: IC50

O=C(C#Cc1ccccc1C(F)(F)F)N1CCN(Cc2ccc(Cl)cc2)CC1 [Compound C469] | 100 to 500 nM
CCCCN1CCN(C(=O)c2cc3cc(Cl)ccc3[nH]2)CC1 [Compound C368] | < 100 nM
O=C(c1cc2cc(Cl)ccc2[nH]1)N1CCN(Cc2ccc(F)cc2C(F)(F)F)CC1 [Compound C426] | 100 to 500 nM
